# experiment.summary: Beagle dog PK study 2 of Example 101 (HPβCD based formulation, IV), with clinical observations
# Assay type: in vivo
# condition.label: beagle, dog, plasma, iv, 1 mg/kg, dog PK study 2, IV 1 mg/kg, HPβCD, Test Animal 1
readout.kind: C0 (ng/mL)

>>> reading("CNC(=O)c1[nH]c(C(=O)NC2CCC2)cc1O[C@@H](C)c1ccccc1 (stereo in doubt) [Example 101]")
1680

###

# experiment.summary: Beagle dog PK study 1 of Example 101 (propylene glycol-based formulation, IV and PO), with clinical observations
# Format: in vivo
# condition.label: beagle, dog, plasma, iv, 1 mg/kg, dog PK study 1, IV, 0.5 h, mean; read-out: Average plasma concentration, Mean
readout.kind: concentration at 0.5 h (ng/mL)

>>> reading("CNC(=O)c1[nH]c(C(=O)NC2CCC2)cc1O[C@@H](C)c1ccccc1 (stereo in doubt) [Example 101]")
885

# credit: patent US20250263370A1
